biological target: Transient receptor potential cation channel subfamily V member 1 (Homo sapiens); assay: Displacement of [3H]RTX from human TRPV1 expressed in CHO cells after 60 mins by scintillation counting analysis; assay type: cell-based; settings: read-out: Ki
Sequence (Q8NER1 whole entry): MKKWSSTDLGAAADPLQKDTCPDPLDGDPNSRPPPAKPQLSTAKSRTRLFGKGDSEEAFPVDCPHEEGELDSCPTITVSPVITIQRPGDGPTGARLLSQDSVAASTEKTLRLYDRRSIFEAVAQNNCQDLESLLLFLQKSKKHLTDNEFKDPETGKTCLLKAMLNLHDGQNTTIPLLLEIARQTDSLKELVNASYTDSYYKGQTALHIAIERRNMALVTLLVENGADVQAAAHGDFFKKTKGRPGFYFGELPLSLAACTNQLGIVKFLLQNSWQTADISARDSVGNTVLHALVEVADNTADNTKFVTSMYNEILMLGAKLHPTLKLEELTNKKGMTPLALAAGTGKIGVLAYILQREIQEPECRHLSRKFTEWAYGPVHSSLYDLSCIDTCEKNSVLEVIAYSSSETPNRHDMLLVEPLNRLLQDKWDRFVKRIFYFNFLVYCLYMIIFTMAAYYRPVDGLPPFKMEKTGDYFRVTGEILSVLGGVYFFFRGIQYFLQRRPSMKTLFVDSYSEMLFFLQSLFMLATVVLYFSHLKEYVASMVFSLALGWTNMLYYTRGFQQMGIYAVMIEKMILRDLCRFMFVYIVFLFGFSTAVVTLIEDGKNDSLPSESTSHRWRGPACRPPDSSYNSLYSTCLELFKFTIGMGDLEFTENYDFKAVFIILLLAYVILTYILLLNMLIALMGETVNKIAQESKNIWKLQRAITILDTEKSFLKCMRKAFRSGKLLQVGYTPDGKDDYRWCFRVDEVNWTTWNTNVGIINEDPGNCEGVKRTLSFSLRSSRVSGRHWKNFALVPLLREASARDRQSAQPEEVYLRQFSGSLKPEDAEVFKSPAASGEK
Ki under 2 nM gets Satisfied, anything at or over 2 nM gets Not satisfied.

q: # strict comparison: is reported Ki < 2 nM? input = CC(C(=O)NCc1ccc(C(F)(F)F)nc1N(Cc1ccc(Cl)cc1)S(=O)(=O)c1ccccc1)c1ccc(NS(C)(=O)=O)c(F)c1 (configuration not stated)
a: Satisfied

q: # strict comparison: is reported Ki < 2 nM? input = COc1ccc(CN(c2nc(C(F)(F)F)ccc2CNC(=O)C(C)c2ccc(NS(C)(=O)=O)c(F)c2)S(=O)(=O)c2ccc(F)cc2)cc1 (configuration not stated)
a: Satisfied

q: # strict comparison: is reported Ki < 2 nM? input = "C[C@H](C(=O)NCc1ccc(C(F)(F)F)nc1N(Cc1ccccc1)S(=O)(=O)c1ccccc1)c1ccc(NS(C)(=O)=O)c(F)c1"
a: Satisfied

q: # strict comparison: is reported Ki < 2 nM? input = CC(C(=O)NCc1ccc(C(F)(F)F)nc1N(C)S(=O)(=O)c1ccccc1)c1ccc(NS(C)(=O)=O)c(F)c1 (configuration not stated)
a: Not satisfied

q: # strict comparison: is reported Ki < 2 nM? input = CC(C(=O)NCc1ccc(C(F)(F)F)nc1N(Cc1ccc(F)cc1)S(=O)(=O)c1ccccc1)c1ccc(NS(C)(=O)=O)c(F)c1 (configuration not stated)
a: Not satisfied

q: # strict comparison: is reported Ki < 2 nM? input = CC(C(=O)NCc1ccc(C(F)(F)F)nc1N(Cc1ccccc1)S(=O)(=O)c1ccc(Cl)cc1)c1ccc(NS(C)(=O)=O)c(F)c1 (configuration not stated)
a: Satisfied
